tested on: writhing induced by phenylquinone administration in Swiss rats; assay: Phenylquinone writhing test, analgesic activity; type: in vivo; details: dose 50 mg/kg
quantity_measured: % Inhibition versus control (%)
Give the number; % is assumed, so skip it.

COC(C(=O)O)c1ccc(-c2ccc(F)cc2F)cc1 (centres unmarked)    98
O=C(O)C(Cl)c1ccc(-c2ccc(F)cc2F)cc1 (centres unmarked)    95
CCOC(C(=O)O)c1ccc(-c2ccc(F)cc2F)cc1 (centres unmarked)    76.7

IN: For the molecule O=C(O)c1cc(-c2ccc(F)cc2F)ccc1O [Diflunisal, reference compound] , report % Inhibition versus control.
OUT: 82

IN: For the molecule O=C(O)C(O)c1ccc(-c2ccc(F)cc2F)cc1 (centres unmarked) , report % Inhibition versus control.
OUT: 85
